Catalogue of Curve Class readings, one per entry.
Target: CIB1 and αIIb interaction (CIB1-GST : F-αIIb peptide) (Homo sapiens)
Construct: made in house; host or cells: BL-21 plus RIL cells (E. coli)
Test: FP assay, 1536-well qHTS format (primary and confirmatory screen)
Assay type: binding
Conditions: qHTS FP screen hits, Table S2; one class per curve where COUNT > 1; negative sign = inhibitory curve
Please reply with the number alone, leaving off any unit.

Molecule	Curve Class
CC(=O)c1c(O)cc2c(c1C)C(=O)CC(O)C2 (stereo not shown)	-2.2
CN(C)C(=S)SSC(=S)N(C)C	-2.2
CC(C)(C)c1ccc(SC2=NS(=O)(=O)c3ccccc32)cc1	-2.2
CC[C@@H](c1ccc(F)c(F)c1)n1c(C(=O)OC)c(-c2ccno2)[nH]c1=S	-2.2
O=C(O)c1cccc(CN2C(=O)/C(=C(\c3ccccc3)c3ccc(Cl)cc3)c3ccccc32)c1	-1.2
C=CCNc1oc(-c2ccc(Cl)cc2)nc1C#N.O=C(O)C(F)(F)F	-2.2

State recorded Curve Class with CIB1 and αIIb interaction (CIB1-GST : F-αIIb peptide) (Homo sapiens), entry C=C1[C@@H](C)[C@H]2[C@H](Cc3ccccc3)NC(=O)[C@]23OC(=O)/C=C/C(=O)CCC[C@@H](C)C/C=C/[C@H]3[C@@H]1O , no comment.
-1.2

State recorded Curve Class with CIB1 and αIIb interaction (CIB1-GST : F-αIIb peptide) (Homo sapiens), entry COc1ccc2c(c1)C=C1Cn3c-2c(C2CCCCC2)c2ccc(cc23)C(=O)NS(=O)(=O)N(C)CCOCCN(C)C1=O , no comment.
-2.2

State recorded Curve Class with CIB1 and αIIb interaction (CIB1-GST : F-αIIb peptide) (Homo sapiens), entry COC[C@H]1OC(=O)c2coc3c2[C@@]1(C)C1=C(C3=O)C2CCC(=O)[C@@]2(C)C[C@H]1OC(C)=O (stereo partly shown) , no comment.
-2.2

State recorded Curve Class with CIB1 and αIIb interaction (CIB1-GST : F-αIIb peptide) (Homo sapiens), entry Nc1ccc(O)c([N+](=O)[O-])c1 , no comment.
-2.2

State recorded Curve Class with CIB1 and αIIb interaction (CIB1-GST : F-αIIb peptide) (Homo sapiens), entry O=C(O)C(F)(F)F.Oc1cccc2cc(N3CCCC3)cnc12 , no comment.
-2.2

State recorded Curve Class with CIB1 and αIIb interaction (CIB1-GST : F-αIIb peptide) (Homo sapiens), entry CC[C@@H](CO)NC(=O)[C@@H]1C=C2c3cccc4[nH]cc(c34)C[C@H]2N(C)C1.O=C(O)/C=C\C(=O)O , no comment.
-2.1

State recorded Curve Class with CIB1 and αIIb interaction (CIB1-GST : F-αIIb peptide) (Homo sapiens), entry COC(=O)c1ccc(O)c2ncc(-c3ccc(C(=O)NCCCN(C)C)cc3)cc12.O=C(O)C(F)(F)F , no comment.
-2.2

State recorded Curve Class with CIB1 and αIIb interaction (CIB1-GST : F-αIIb peptide) (Homo sapiens), entry COP(=S)(OC)SCN1C(=O)c2ccccc2C1=O , no comment.
-1.2

State recorded Curve Class with CIB1 and αIIb interaction (CIB1-GST : F-αIIb peptide) (Homo sapiens), entry O=C(O)c1ccccc1SC1=NS(=O)(=O)c2ccccc21 , no comment.
-2.2

State recorded Curve Class with CIB1 and αIIb interaction (CIB1-GST : F-αIIb peptide) (Homo sapiens), entry O=C1C(I)=CC(=C(c2cc(I)c([O-])c(I)c2)c2ccccc2C(=O)[O-])C=C1I.[Na+].[Na+] , no comment.
-1.2

----------
Target: CIB1 and αIIb interaction (CIB1-GST : F-αIIb peptide) (Homo sapiens)
Construct: made in house; host or cells: BL-21 plus RIL cells (E. coli)
Sequence (Q99828 1-191): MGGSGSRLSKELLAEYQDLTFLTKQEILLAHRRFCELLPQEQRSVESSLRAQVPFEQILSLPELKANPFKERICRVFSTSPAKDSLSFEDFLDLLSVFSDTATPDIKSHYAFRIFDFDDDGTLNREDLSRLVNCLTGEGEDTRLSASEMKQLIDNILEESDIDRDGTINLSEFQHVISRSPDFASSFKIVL
Experiment: FP assay, 1536-well qHTS format (primary and confirmatory screen)
Format: binding
Details: Table S3, confirmatory screen; negative = inhibition
Assay Metric: Efficacy (%) (confirmatory screen)
Number in %, nothing else.

For orientation, consider the following solved cases.
Molecule	Experimental System	Value Units	Endpoint Result
C[n+]1cc2c3c(ccc2c2ccc4cc5c(cc4c21)OCO5)OCO3.[Cl-] [NCGC00015959-09]	CIB1 and αIIb interaction (CIB1-GST : F-αIIb peptide) (Homo sapiens)	%	0
CO[C@@H]1C(N(C)C(=O)c2ccccc2)C[C@H]2O[C@]1(C)n1c3ccccc3c3c4c(c5c6ccccc6n2c5c31)C(=O)NC4=O (stereo partly drawn) [NCGC00345083-01]	CIB1 and αIIb interaction (CIB1-GST : F-αIIb peptide) (Homo sapiens)	%	-78
COc1c(O)cccc1[C@H](O)C1CCN(CCc2ccc(F)cc2)CC1 [NCGC00168042-01]	CIB1 and αIIb interaction (CIB1-GST : F-αIIb peptide) (Homo sapiens)	%	-89
CC(C)c1nc(Nc2nc3ccccc3o2)nc2c1CCCC2.O=C(O)C(F)(F)F [NCGC00188040-01]	CIB1 and αIIb interaction (CIB1-GST : F-αIIb peptide) (Homo sapiens)	%	-29
CO[C@H](C(=O)[C@@H](O)[C@@H](C)O)[C@@H]1Cc2cc3cc(C[C@H]4C[C@H](O[C@H]5C[C@@H](O)[C@H](O)[C@@H](C)O5)[C@@H](O)[C@@H](C)O4)c(C)c(O)c3c(O)c2C(=O)[C@H]1O[C@@H]1C[C@H](O[C@@H]2C[C@H](O[C@@H]3C[C@](O)(CO)[C@@H](O)[C@H](C)O3)[C@@H](O)[C@H](C)O2)[C@@H](O)[C@H](C)O1 [NCGC00162423-04]	CIB1 and αIIb interaction (CIB1-GST : F-αIIb peptide) (Homo sapiens)	%	-183

Okay, now this molecule:
Identify Efficacy (%) (confirmatory screen) associated with the molecule Cn1cnc(-c2nccc3c(O)nc(OCCCC(F)(F)F)nc23)c1.O=C(O)C(F)(F)F [NCGC00381768-02]
-16

----------
Biological target: CIB1 and αIIb interaction (CIB1-GST : F-αIIb peptide) (Homo sapiens, UniProt Q99828)
Construct: made in house; host or cells: BL-21 plus RIL cells (E. coli)
Sequence (Q99828 1-191): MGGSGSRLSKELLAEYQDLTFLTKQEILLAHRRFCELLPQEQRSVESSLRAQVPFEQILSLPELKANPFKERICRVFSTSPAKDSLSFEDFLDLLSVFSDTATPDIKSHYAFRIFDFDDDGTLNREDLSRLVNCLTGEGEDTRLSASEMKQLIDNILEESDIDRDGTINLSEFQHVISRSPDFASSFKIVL
Test: FP assay, 1536-well qHTS format (primary and confirmatory screen)
Assay type: binding
Conditions: qHTS primary screen hits, Table S2; negative sign = inhibitory curve
I would appreciate it if you labelled entries class 1 when Curve Class is -2 or higher, otherwise class 0.

Worked examples follow.
Molecule	Experimental System	Class Label
COc1ccc(CNC(=O)c2ccc3c(c2)NC(=O)c2ccccc2S3)cc1	CIB1 and αIIb interaction (CIB1-GST : F-αIIb peptide) (Homo sapiens, UniProt Q99828)	class 0
Cc1cc(Nc2c(Nc3nnc(-c4ccncc4)s3)c(=O)c2=O)ccc1Cl.O=C(O)C(F)(F)F	CIB1 and αIIb interaction (CIB1-GST : F-αIIb peptide) (Homo sapiens, UniProt Q99828)	class 0
c1ccc(C2Nc3cccc4cccc(c34)N2)cc1	CIB1 and αIIb interaction (CIB1-GST : F-αIIb peptide) (Homo sapiens, UniProt Q99828)	class 0
Cc1cc(SCc2sc(-c3ccc(Cl)cc3)nc2C)ccc1OCC(=O)O.O=C(O)C(F)(F)F	CIB1 and αIIb interaction (CIB1-GST : F-αIIb peptide) (Homo sapiens, UniProt Q99828)	class 0
COc1cc([C@H]2Oc3cc([C@H]4Oc5cc(O)cc(O)c5C(=O)[C@@H]4O)ccc3O[C@@H]2CO)ccc1O	CIB1 and αIIb interaction (CIB1-GST : F-αIIb peptide) (Homo sapiens, UniProt Q99828)	class 0

Test whether the molecule Cc1ccc(S(=O)(=O)Nc2ccc(OC(F)(F)F)cc2C(=O)Nc2nc(-c3ccccc3)cs2)cc1.O=C(O)C(F)(F)F records Curve Class of -2 or higher.
class 0

Test whether the molecule Cc1cc(Cl)ccc1-n1c(CCC(=O)O)ccc1-c1cccs1 records Curve Class of -2 or higher.
class 0

Test whether the molecule CC1CCC2(C1)N=C(Nc1nc3ccccc3o1)NC1=C2C(=O)CCC1.O=C(O)C(F)(F)F (centres unmarked) records Curve Class of -2 or higher.
class 0
